Measured IC50 values are reported for all entries that follow.
System: ERK phosphorylation in KYSE-520 cells
Assay: Phospho-ERK cellular assay (Advanced phospho-ERK1/2 (Thr202/Tyr204) TR-FRET kit)
Type: cell-based
Conditions: Homo sapiens, KYSE-520, 2 h, KYSE-520 cells, 2 h at 37° C., TR-FRET; read-out: pERK IC50

1. Cc1nc2nc(N3CCC(C)(N)CC3)[nH]c2nc1Sc1cccc(Cl)c1Cl ... > 5000 nM
2. CNc1nccc(Sc2cnc3[nH]c(N4CCC5(CC4)Cc4ncccc4[C@H]5N)nc3n2)c1C(F)(F)F ... < 1000 nM
3. N#Cc1ncccc1Sc1cnc2[nH]c(N3CCC4(CC3)Cc3ccccc3[C@H]4N)nc2n1 ... < 1000 nM
4. Nc1nccc(Sc2cnc3[nH]c(N4CCC5(CC4)Cc4cc(CO)ccc4[C@H]5N)nc3n2)c1Cl ... < 1000 nM
5. N[C@@H]1c2cccnc2CC12CCN(c1nc3ncc(Sc4cc(Cl)c5[nH]c(=O)oc5c4)nc3[nH]1)CC2 ... > 5000 nM
6. N[C@@H]1c2ccccc2CC12CCN(c1nc3nc(Sc4cccc(Cl)c4Cl)c(Cl)nc3[nH]1)CC2 ... < 1000 nM
7. COc1cnccc1Sc1cnc2nc(N3CCC4(CC3)Cc3ccccc3[C@H]4N)[nH]c2n1 ... < 1000 nM
8. CN(C)c1nccc(Sc2cnc3[nH]c(N4CCC5(CC4)Cc4ncccc4[C@H]5N)nc3n2)c1Cl ... > 5000 nM

**Q:** Reported IC50, molecule CCOc1cnccc1Sc1cnc2[nH]c(N3CCC4(CC3)Cc3ccccc3[C@H]4N)nc2n1 : ____
**A:** < 1000 nM

**Q:** Field entry: N[C@@H]1c2cccnc2CC12CCN(c1nc3ncc(Sc4ccc5c(c4Cl)NC(=O)CO5)nc3[nH]1)CC2
**A:** < 1000 nM

**Q:** Field entry: CC1(N)CCN(c2nc3nc(Sc4ccnc5ccccc45)cnc3[nH]2)CC1
**A:** 1000 to 5000 nM

**Q:** Field entry: Cn1c(N2CCC(C)(N)CC2)nc2nc(Sc3cccnc3C(F)(F)F)cnc21
**A:** > 5000 nM
